Origin of the recorded values: paper PMC9250534

Biological target: thrombin (Homo sapiens)
Construct: consists of two polypeptide chains of 36 (light chain) and 259 amino acid
Assay: Thrombin inhibition screen of crude macrocycle reactions (residual thrombin activity, fluorogenic substrate Z-Gly-Gly-Arg-AMC)
Format: biochemical
Details: 10 µM macrocycle concentration; crude reactions, Library 1a-l; scaffold AA1-AA2-AA3 combined with 1-16 or '-'
Numbered stars: 1 amine (or outer) side, 2 acyl side, 3 side chain; on linkers, the order of the positions; unused ones are H or OH. Bridge positions count the residues as written; N and C are the ends. Square brackets hold non-standard residues; d marks the D form. Peptide text beside a SMILES is read from it. * marks the point of attachment. 1,2,3Thiadiazole5CO(4-Me) = Cc1nnsc1C(=O)*; Cysteamide = C(CS[*:3])N[*:1]; X3 = O=C(Cc1c[nH]c2ccccc12)*; 2Furoyl = O=C(c1ccco1)*; Mpa = O=C(O)CCS
assay readout: percent residual thrombin activity (%)

query: Would you kindly share the measured percent residual thrombin activity for NCCCC[C@@H]1NC(=O)CCSSCCNC(=O)[C@@H]2CCCN2C(=O)[C@H](CCC(N)=O)NC1=O [D1-Q-B1/-] ([Mpa]KQP-Cysteamide; disulfide 1-C) ?
result: 108.142

query: Same question, NC(=O)CC[C@@H]1NC(=O)CCSSCCNC(=O)[C@H](CCCCNC(=O)c2cnccn2)NC(=O)C2(CC2)CNC1=O [Q-B6-D1/2] this time
result: 107.685

query: Same question, C[C@H]1NC(=O)CCSSCCNC(=O)[C@H](CCCCNC(=O)c2ccco2)NC(=O)[C@@H]2CCCN2C1=O [a-B1-D1/16] ([Mpa][dA]PK(2Furoyl)-Cysteamide; disulfide 1-C) this time
result: 111.353

query: Same question, CC[C@H](C)[C@@H]1NC(=O)[C@H](CCCNC(=O)Cc2c[nH]c3ccccc23)NC(=O)c2cccc(c2)CNC(=O)CCSSCCNC1=O [B5-D2-I/12] this time
result: 103.906

query: Same question, NC(=O)CC[C@@H]1NC(=O)[C@H](CCCCNC(=O)Cc2c[nH]c3ccccc23)NC(=O)CCSSCCNC(=O)[C@@H]2CCCN2C1=O [D1-Q-B1/12] ([Mpa]K(X3)QP-Cysteamide; disulfide 1-C) this time
result: 104.82

query: Same question, Cc1nnsc1C(=O)NCCCC[C@@H]1NC(=O)[C@H](C(C)C)NC(=O)CCSSCCNC(=O)[C@@H]2CCCN2C1=O [V-D1-B1/15] ([Mpa]VK(1,2,3Thiadiazole5CO(4-Me))P-Cysteamide; disulfide 1-C) this time
result: 114.617

query: Same question, CC(C)CC(=O)NCCC[C@@H]1NC(=O)CCSSCCNC(=O)[C@H](CCC(N)=O)NC(=O)c2ccc(cc2)CNC1=O [D2-B3-Q/8] this time
result: 112.114

query: Same question, O=C1CCSSCCNC(=O)[C@H](CCCCNC(=O)c2c[nH]c(=O)[nH]c2=O)NC(=O)[C@H]2CCCN(C2)C(=O)[C@@H](CO)N1 [s-B4-D1/11] this time
result: 112.975

query: Same question, COc1ccc(C(=O)NCCCC[C@@H]2NC(=O)[C@H]3CCCN(C3)C(=O)[C@@H](CO)NC(=O)CCSSCCNC2=O)cn1 [s-B4-D1/10] this time
result: 109.656

query: Same question, O=C1CCSSCCNC(=O)[C@H](Cc2c[nH]c3ccccc23)NC(=O)[C@H](CCCNC(=O)c2c[nH]c(=O)[nH]c2=O)NC(=O)C2(CC2)CN1 [B6-D2-W/11] this time
result: 94.9215

query: Same question, CC(C)CC(=O)NCCCC[C@@H]1NC(=O)CCSSCCNC(=O)C2(CC2)CNC(=O)[C@H](C(C)C)NC1=O [D1-V-B6/8] this time
result: 110.303

query: Same question, NCCC[C@@H]1NC(=O)c2ccc(cc2)CNC(=O)[C@H](CO)NC(=O)CCSSCCNC1=O [S-B3-D2/-] this time
result: 119.352
